Origin of values: patent US20210130452A1

testedOn: T1, human IL-17A (human, UniProt Q16552 24-155)
T1 construct: secreted form made in Hek293 cells (GenBank U32659); also called hIL-17A; hIL17A
assayExplanation: SPR (Biacore) off-rate
Quick list: koff per entry.

| binder | koff, s⁻¹ |
| --- | --- |
| IL17MS3039 (VHH, variant of IL17MS13E02; Kabat numbering) VHH: EVQLVESGGGLVQAGGSLRLSCAASGRTYDAMGWLRQAPGKEREFVAAISGSGDDTYYADSVKGRFTISKDNAGITVYLQMNSLKPEDTAVYYCATRRGLYYVWDSNDYENWGQGTQVTVSS | 0.00021 |
| IL17MS3019 (VHH, variant of IL17MS13E02; Kabat numbering) VHH: EVQLVESGGGLVQPGGSLRLSCAASGRTYDAMGWFRQAPGKEREFVAAISGSGDDTYYADSVKGRFTISKDNSGITMYLQMNSLRPEDTAVYYCATRRGLYYVWDSNDYENWGQGTLVTVSS | 0.000745 |
